Give measured Ki for each item. Keep answers brief.
Biological target: Cruzain (Trypanosoma cruzi, UniProt P25779)
Sequence (P25779 123-337): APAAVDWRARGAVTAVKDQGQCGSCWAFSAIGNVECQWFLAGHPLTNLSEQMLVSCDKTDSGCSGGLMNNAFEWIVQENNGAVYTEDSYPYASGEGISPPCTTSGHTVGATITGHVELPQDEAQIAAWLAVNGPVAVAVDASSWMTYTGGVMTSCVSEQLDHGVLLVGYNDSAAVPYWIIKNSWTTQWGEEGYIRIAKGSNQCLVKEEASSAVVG
Assay: Cysteine protease inhibition, progress curve method, cruzain
Type: biochemical
Conditions: 4 uM Ac-Lys-Glu-Lys-Leu-Arg-AMC, 100 mM Na acetate pH 5.5, 5 mM cysteine; read-out: Cruzain Ki
Enter your answer as a number in µM; do not include the unit.

Could you share which Ki value was measured for Cc1ccc2oc(C(=O)N[C@@H](CC(C)C)C(=O)NC3CCCN(S(=O)(=O)c4cccc[n+]4[O-])CC3=O)c(C)c2c1 (stereo partly drawn) ?
0.01

Could you share which Ki value was measured for `COc1ccc(C(=O)N[C@H](CC(C)C)C(=O)N[C@@H]2CCCN(S(=O)(=O)c3ccccc3C#N)CC2=O)cc1OC` ?
0.0099

Could you share which Ki value was measured for CC(C)C[C@@H](NC(=O)COc1ccc(F)cc1)C(=O)N[C@@H]1CCCN(S(=O)(=O)c2ccccn2)CC1=O (stereo in doubt) ?
0.033

Could you share which Ki value was measured for Cc1c(C(=O)N[C@H](CC(C)C)C(=O)N[C@H]2CCCN(S(=O)(=O)c3cccc[n+]3[O-])CC2=O)oc2ccc(F)cc12 [Example 192] ?
0.014

Could you share which Ki value was measured for CC(C)C[C@@H](NC(=O)c1cc2ccccc2o1)C(=O)N[C@@H]1CCCN(S(=O)(=O)c2ccccc2)CC1=O (stereo in doubt) ?
0.016

Could you share which Ki value was measured for `CC(C)C[C@H](NC(=O)c1ccc2c(c1)OCO2)C(=O)N[C@H]1CCCN(Cc2ccccc2)CC1=O` ?
0.058

---

Give measured pKi for each item. Keep answers brief.
Biological target: Cruzain (Trypanosoma cruzi, UniProt P25779)
Experiment: Cysteine protease inhibition, progress curve method, cruzain
Type: biochemical
Details: 4 uM Ac-Lys-Glu-Lys-Leu-Arg-AMC, 100 mM Na acetate pH 5.5, 5 mM cysteine; read-out: Cruzain Ki
Interpret pKi as the negative base-10 log of the concentration measured in mol/L.

Could you share which pKi value was measured for CC(C)C[C@@H](NC(=O)c1cc2ccccc2s1)C(=O)N[C@@H]1CCCN(S(=O)(=O)c2cccc[n+]2[O-])CC1=O [Example 46] ?
8.21

Could you share which pKi value was measured for CC(C)CC(NC(=O)c1nc(-c2ccccc2)oc1C(F)(F)F)C(=O)NC1CCCN(S(=O)(=O)c2ccccn2)CC1=O (single isomer, unassigned) [Example 105] ?
7.89

Could you share which pKi value was measured for CC(C)C[C@@H](NC(=O)c1ccc2c(c1)OCO2)C(=O)N[C@@H]1CCCN(S(=O)(=O)c2cccc[n+]2[O-])CC1=O [Example 55] ?
7.92

Could you share which pKi value was measured for CC(C)C[C@@H](NC(=O)c1ccnc2ccccc12)C(=O)N[C@@H]1CCCN(S(=O)(=O)c2ccccn2)CC1=O (single isomer, unassigned) [Example 153] ?
8.62

Could you share which pKi value was measured for COc1ccc2oc(C(=O)N[C@H](CC(C)C)C(=O)N[C@@H]3CCCN(S(=O)(=O)c4ncccc4C)CC3=O)cc2c1 (single isomer, unassigned) [Example 171] ?
8.60

Could you share which pKi value was measured for Cc1oc(-c2ccccc2)nc1C(=O)N[C@@H](CC(C)C)C(=O)NC1CCCN(S(=O)(=O)c2ccccn2)CC1=O (stereo partly drawn) [Example 106] ?
7.80

Could you share which pKi value was measured for CC(C)CC(NC(=O)c1cc2ccccc2n1C)C(=O)NC1CCCN(S(=O)(=O)c2cccs2)CC1=O (stereo not drawn) [Example 148] ?
8.09

Could you share which pKi value was measured for Cc1c(C(=O)N[C@H](CC(C)C)C(=O)N[C@@H]2CCCN(S(=O)(=O)c3cccc[n+]3[O-])CC2=O)oc2ccccc12 (single isomer, unassigned) [Example 99] ?
8.11

Could you share which pKi value was measured for CC(C)CC(NC(=O)c1ccc2c(c1)OCCCO2)C(=O)N[C@@H]1CCCN(S(=O)(=O)c2cccc[n+]2[O-])CC1=O (single isomer, unassigned) [Example 78] ?
8.36

Could you share which pKi value was measured for CC(C)C[C@H](NC(=O)c1cc2sccc2s1)C(=O)N[C@H]1C[C@H](C)CN(S(=O)(=O)c2ccccn2)CC1=O [Example 200] ?
8.57

Could you share which pKi value was measured for CC(C)C[C@@H](NC(=O)c1ccc2ccccc2c1)C(=O)N[C@@H]1CCCN(S(=O)(=O)c2ccccn2)CC1=O (single isomer, unassigned) [Example 155] ?
8.39

Could you share which pKi value was measured for CC(C)C[C@@H](NC(=O)c1ccc(Br)o1)C(=O)N[C@@H]1CCCN(S(=O)(=O)c2cccc[n+]2[O-])CC1=O [Example 50] ?
8.00

---

Target: Leishmania B (UniProt P90627)
Assay: Cysteine protease inhibition, progress curve method, leishmania B
Format: biochemical, Leishmania spp
Conditions: read-out: Leishmania B Ki nM; 10 uM Cbz-Phe-Arg-AMC, 100 mM Na acetate pH 5.5, 5 mM cysteine
Give measured Ki for each item. Keep answers brief.
Enter your answer as a number in nM; do not include the unit.

Recorded Ki for O=C(N[C@@H](Cc1ccc2ccccc2c1)C(=O)NC1CCCN(S(=O)(=O)c2ccccn2)CC1=O)c1cccc2ccccc12 (single isomer, unassigned) [Example 188] with Leishmania B (UniProt P90627), please?
2.8

Recorded Ki for `Cc1c(C(=O)N[C@@H](CC(C)C)C(=O)N[C@H]2CCCN(S(=O)(=O)c3cccc(Cl)c3)CC2=O)oc2ccccc12` with Leishmania B (UniProt P90627), please?
3.3

Recorded Ki for `COc1ccc2oc(C(=O)N[C@@H](CC(C)C)C(=O)N[C@H]3CCCN(S(=O)(=O)c4ccc(Cl)cc4)CC3=O)cc2c1` with Leishmania B (UniProt P90627), please?
8.1

Recorded Ki for `CC(C)C[C@H](NC(=O)c1cc2ccccc2s1)C(=O)N[C@@H]1CCCN(S(=O)(=O)c2ccc(F)cc2)CC1=O` with Leishmania B (UniProt P90627), please?
9.4

---

Give measured Ki for each item. Keep answers brief.
Target: Rhodazain (Trypanosoma brucei rhodesiense, UniProt Q95PM0)
Sequence (Q95PM0 entry or part of it): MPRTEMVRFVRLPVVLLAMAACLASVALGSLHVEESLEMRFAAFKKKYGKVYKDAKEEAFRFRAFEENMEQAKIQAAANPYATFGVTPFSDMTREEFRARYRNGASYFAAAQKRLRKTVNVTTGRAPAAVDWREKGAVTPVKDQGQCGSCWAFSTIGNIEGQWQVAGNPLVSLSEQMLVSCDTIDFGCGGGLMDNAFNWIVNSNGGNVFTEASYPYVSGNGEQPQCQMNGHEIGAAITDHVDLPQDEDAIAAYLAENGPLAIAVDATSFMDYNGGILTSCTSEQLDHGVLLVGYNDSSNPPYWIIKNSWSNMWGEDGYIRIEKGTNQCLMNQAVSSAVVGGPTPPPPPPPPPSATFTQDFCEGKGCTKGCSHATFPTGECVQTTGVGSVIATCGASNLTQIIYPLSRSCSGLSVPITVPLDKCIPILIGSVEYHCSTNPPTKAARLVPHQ
Test: Cysteine protease inhibition, progress curve method, rhodazain
Format: biochemical, Trypanosoma brucei rhodesiensi
Settings: Rhodazain Ki (nM), 10 uM Cbz-Leu-Arg-AMC, 100 mM Na acetate pH 5.5, 5 mM cysteine
Enter your answer as a number in nM; do not include the unit.

Recorded Ki for CC(C)C[C@H](NC(=O)c1cc2ccccc2o1)C(=O)NC1CCCN(S(=O)(=O)c2cccc(F)c2)CC1=O (stereo partly shown) with Rhodazain (Trypanosoma brucei rhodesiense, UniProt Q95PM0), please?
6.5

Recorded Ki for `COc1ccc2oc(C(=O)N[C@@H](CC(C)C)C(=O)N[C@H]3CCCN(S(=O)(=O)c4nccs4)CC3=O)cc2c1` with Rhodazain (Trypanosoma brucei rhodesiense, UniProt Q95PM0), please?
2.2

Recorded Ki for Cc1csc(C(=O)NC(CC(C)C)C(=O)N[C@H]2CCCN(C(=O)Nc3ccccc3F)CC2=O)c1 (stereo partly shown) with Rhodazain (Trypanosoma brucei rhodesiense, UniProt Q95PM0), please?
4.2

Recorded Ki for `Cc1c(C(=O)N[C@@H](CC(C)C)C(=O)N[C@@H]2CCCN(S(=O)(=O)c3cccs3)CC2=O)oc2ccccc12` with Rhodazain (Trypanosoma brucei rhodesiense, UniProt Q95PM0), please?
9.4

---

Observed Ki values for Falcipain 2 (Plasmodium falciparum, UniProt Q8I6U4) are listed in what follows.
Enter your answer as a number in µM; do not include the unit.

Could you share which Ki value was measured for CC(C)C[C@H](NC(=O)c1ccc(-c2cccc(C(F)(F)F)c2)o1)C(=O)N[C@@H]1CCCN(S(=O)(=O)c2ccccn2)CC1=O [Example 66] ?
0.01

Could you share which Ki value was measured for CC(C)CC(NC(=O)c1cc2ccccc2s1)C(=O)NC1CCCN(S(=O)(=O)c2ccccn2)CC1=O (stereo in doubt) [Example 87] ?
0.042

Could you share which Ki value was measured for COc1cccc2cc(C(=O)N[C@H](CC(C)C)C(=O)N[C@H]3CCCN(S(=O)(=O)c4ccccn4)CC3=O)oc12 [Example 164] ?
0.0022

---

Biological target: Leishmania B (UniProt P90627)
Test: Cysteine protease inhibition, progress curve method, leishmania B
Format: biochemical, Leishmania spp
Conditions: read-out: Leishmania B Ki nM; 10 uM Cbz-Phe-Arg-AMC, 100 mM Na acetate pH 5.5, 5 mM cysteine
With a cut-off of 2 nM, any Ki strictly below it is called Y; any Ki meeting it or above is called N.

Threshold test, Ki < 2 nM: O=C(NC(Cc1ccc2ccccc2c1)C(=O)NC1CCCN(S(=O)(=O)c2ccccn2)CC1=O)c1cccc2cccnc12 (stereo not drawn) [Example 187]
N

Threshold test, Ki < 2 nM: O=C(N[C@@H](Cc1ccc2ccccc2c1)C(=O)NC1CCCN(S(=O)(=O)c2ccccn2)CC1=O)c1cccc2cccnc12 (stereo partly drawn) [Example 174]
Y

Threshold test, Ki < 2 nM: O=C(N[C@@H](Cc1ccc2ccccc2c1)C(=O)NC1CCCN(S(=O)(=O)c2ccccn2)CC1=O)c1cc2ccccc2o1 (stereo partly drawn) [Example 159]
Y

Threshold test, Ki < 2 nM: O=C(N[C@@H](Cc1ccccc1)C(=O)NC1CCCN(S(=O)(=O)c2ccccn2)CC1=O)c1cccc2cccnc12 (single isomer, unassigned) [Example 189]
N

Threshold test, Ki < 2 nM: COc1ccc2oc(C(=O)N[C@@H](CC(C)C)C(=O)N[C@H]3CCCN(S(=O)(=O)c4cccc(Cl)c4)CC3=O)cc2c1 [Example 89]
N

Threshold test, Ki < 2 nM: CC(C)CC(NC(=O)c1cc2ccccc2o1)C(=O)NC1CC[C@@H](C)N(S(=O)(=O)c2ccccn2)CC1=O (single isomer, unassigned) [Example 182]
N
